assay-overview: reduction of polyQ htt aggregates in cells – imaging, exon1htt(103Q)mCFP cells, high-content imaging, primary screen (AID 483);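 further: compound exposure lasted 3 days before fixation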
run-conditions: exon1htt(103Q)mCFP cell line, aggregate imaging, at 2 µM; hits give high values
Would you mind telling me the reported inhibition of aggregation of each entry?
Please give a number only; it is taken to be in %.

stdin: inhibition of aggregation lookup needed for Cc1ccccc1NC(=O)c1c(F)c(F)c(F)c(F)c1F , thanks.
stdout: -11.8

stdin: Return reported inhibition of aggregation; argument: CCOC(=O)C1=C(C)Nc2ncnn2C1c1ccccc1F (centres undefined)
stdout: -7.1

stdin: Sample COC(=O)c1[nH]c(C)c(/C(O)=C2\C(=O)C(=O)N(CCN(C)C)C2c2ccccc2OC)c1C (centres undefined) — what was its inhibition of aggregation?
stdout: 10.7

stdin: I'd like to know its inhibition of aggregation. The compound in question is CCCC(O)(CCN(C)C)c1ccc(OC)cc1 (centres undefined)
stdout: 18.4

stdin: Query (compound): O=C(CSc1ncnc2ccccc12)N1CCN(c2ccccc2)CC1 ; field requested: inhibition of aggregation
stdout: 10.5

stdin: What does the data say about its inhibition of aggregation? Entry: CN(CC(=O)Nc1ccncc1)S(=O)(=O)c1ccccc1
stdout: 11.1

stdin: What value of measured inhibition of aggregation is listed for COc1ccc(CCNC(=O)c2cc(-c3cc(C)c(C)cc3O)n[nH]2)cc1OC ?
stdout: 8.6

stdin: For CCOC(=O)CSc1nc(C)c(C(=O)OCC)s1 , what is its reported inhibition of aggregation?
stdout: -6.8

stdin: Quick one: inhibition of aggregation for CCC(=O)Nc1ccc(F)c(Cl)c1 ?
stdout: 7.9

stdin: Look at this compound and give its reported inhibition of aggregation. CN(CC(=O)Nc1ccccc1Cl)C(=O)COC(=O)CNC(=O)c1ccc(Br)o1
stdout: -3.1

stdin: inhibition of aggregation lookup needed for O=C(CSc1nc2ccccc2o1)N1CCN(c2ccc(Cl)cc2)CC1 , thanks.
stdout: -13.9

stdin: Record request: inhibition of aggregation value, item CCCn1c2ccccc2c2nnc(SCC(=O)OCC)nc21
stdout: -3

stdin: # lookup: inhibition of aggregation of Cc1ccc(NC(=O)c2oc3ccc(S(=O)(=O)N4CCOCC4)cc3c2C)cc1C
stdout: -20.5

stdin: Which measured inhibition of aggregation value corresponds to O=c1cc(COn2nnc3ccc(C(F)(F)F)cc32)nc2sccn12 ?
stdout: -2.2

stdin: inhibition of aggregation for Cc1ccc(CNC(=O)CCCn2c(=O)c3ccccc3n(CC(=O)NCc3ccco3)c2=O)cc1 ?
stdout: -4

stdin: # input compound: C=CCSc1nc2c(c(=O)[nH]c(=O)n2C)n1C(C)C ; wanted: its inhibition of aggregation
stdout: -2.8

stdin: # input compound: CCCCNC(=O)c1c(C)cc(=O)oc1C ; wanted: its inhibition of aggregation
stdout: -12.9

stdin: I would be grateful if you could share the reported inhibition of aggregation for COc1cccc(CNc2cccc3cccnc23)c1O .
stdout: 19.2

stdin: Quick one: inhibition of aggregation of Cc1nc2ccc(NC(=O)N3CCOCC3)cc2s1 ?
stdout: -0.3

stdin: Reported inhibition of aggregation for Cc1cccc(OCC(=O)Nc2ccccc2N2CCN(C(=O)C(C)C)CC2)c1C : what is it?
stdout: 6

stdin: inhibition of aggregation lookup needed for COc1ccccc1NC(=O)N1CCCC1C(=O)NC1CCCCC1 (centres undefined) , thanks.
stdout: 9

stdin: Item O=C(CS(=O)(=O)Cc1ccccc1)Nc1nc2ccccc2s1 has what recorded inhibition of aggregation?
stdout: 8.1

stdin: Looking for the measured inhibition of aggregation of COc1cccc(OC)c1C(=O)Nc1cccc(C(C)=O)c1 , can you help?
stdout: 19.3

stdin: Which inhibition of aggregation value belongs to Cc1cc(NS(=O)(=O)c2ccccc2)n(-c2ccccc2)n1 ?
stdout: -18.2
